Measured kinase still bound, per cent of control by item
- target-under-test: UniProt:Q07002
- Sequence (Q07002 whole entry, looked up): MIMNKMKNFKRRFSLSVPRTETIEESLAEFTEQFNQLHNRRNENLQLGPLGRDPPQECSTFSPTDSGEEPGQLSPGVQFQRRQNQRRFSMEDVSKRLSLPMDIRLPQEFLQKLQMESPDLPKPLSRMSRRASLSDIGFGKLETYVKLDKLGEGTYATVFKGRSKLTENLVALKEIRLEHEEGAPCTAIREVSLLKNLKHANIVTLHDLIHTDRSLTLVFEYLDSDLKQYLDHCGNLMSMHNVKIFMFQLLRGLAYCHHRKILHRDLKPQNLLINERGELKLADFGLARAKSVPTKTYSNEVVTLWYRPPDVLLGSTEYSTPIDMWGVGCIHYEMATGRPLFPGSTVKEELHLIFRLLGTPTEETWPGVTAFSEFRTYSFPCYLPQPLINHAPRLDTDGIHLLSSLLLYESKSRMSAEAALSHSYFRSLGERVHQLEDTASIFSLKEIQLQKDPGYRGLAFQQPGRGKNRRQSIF
- assay: KINOMEscan competition binding
- condition-description: compound 10.0 µM

[
  {
    "chem-smiles": "CCN1CCN(C(=O)Cc2ccc(Nc3ncc(F)c(Nc4ccc(C(=O)Nc5ccccc5Cl)cc4)n3)cc2)CC1",
    "kinase still bound, per cent of control (%)": 43
  },
  {
    "chem-smiles": "CCN(CC)CCCCNc1ncc2c(n1)N(C)C(=O)N(c1c(Cl)c(OC)cc(OC)c1Cl)C2",
    "kinase still bound, per cent of control (%)": 100
  },
  {
    "chem-smiles": "CN(C)C/C=C/C(=O)Nc1ccc(C(=O)Nc2cccc(Nc3nccc(-c4cccnc4)n3)c2)cc1",
    "kinase still bound, per cent of control (%)": 95
  },
  {
    "chem-smiles": "O=C(Nc1cccc(Nc2ncc(Br)c(NCCc3cnc[nH]3)n2)c1)N1CCCC1",
    "kinase still bound, per cent of control (%)": 100
  },
  {
    "chem-smiles": "C=CC(=O)Nc1cc(-n2c(=O)ccc3cnc4ccc(-c5cn[nH]c5)cc4c32)ccc1C",
    "kinase still bound, per cent of control (%)": 88
  },
  {
    "chem-smiles": "COc1cc(N2CCN(C)CC2)ccc1Nc1ncc2c(n1)N(C)c1ccccc1C(=O)N2C",
    "kinase still bound, per cent of control (%)": 100
  },
  {
    "chem-smiles": "O=c1cc(N2CCOCC2)oc2c(-c3cccc4c3sc3ccccc34)cccc12",
    "kinase still bound, per cent of control (%)": 100
  },
  {
    "chem-smiles": "CNC(=O)c1cc(Oc2ccc(NC(=O)Nc3ccc(Cl)c(C(F)(F)F)c3)cc2)ccn1",
    "kinase still bound, per cent of control (%)": 70
  },
  {
    "chem-smiles": "CNC(=O)c1ccc(Nc2cc(Nc3ccccc3S(=O)(=O)C(C)C)c3cc[nH]c3n2)nc1",
    "kinase still bound, per cent of control (%)": 100
  },
  {
    "chem-smiles": "COc1cc2ncn(-c3cc(OCc4ccccc4C(F)(F)F)c(C(N)=O)s3)c2cc1OC",
    "kinase still bound, per cent of control (%)": 83
  },
  {
    "chem-smiles": "COc1ccc(N(C(=O)Oc2c(C)cccc2C)c2ccnc(Nc3ccc(N4CCN(C)CC4)cc3)n2)c(OC)c1",
    "kinase still bound, per cent of control (%)": 100
  },
  {
    "chem-smiles": "CCN(CC)CCCCNc1ncc2cc(-c3cc(OC)cc(OC)c3)c(NC(=O)NC(C)(C)C)nc2n1",
    "kinase still bound, per cent of control (%)": 100
  },
  {
    "chem-smiles": "NC(=O)Nc1cc(-c2cccc(F)c2)sc1C(=O)N[C@@H]1CCCNC1",
    "kinase still bound, per cent of control (%)": 100
  },
  {
    "chem-smiles": "COCC(=O)NC/C=C/c1ccc2ncnc(Nc3ccc(Oc4ccc(C)nc4)c(C)c3)c2c1",
    "kinase still bound, per cent of control (%)": 99
  },
  {
    "chem-smiles": "C=CC(=O)Nc1ccc(CN(C(=O)Nc2c(Cl)c(OC)cc(OC)c2Cl)c2cc(Nc3ccc(N4CCN(C)CC4)cc3)ncn2)cc1",
    "kinase still bound, per cent of control (%)": 100
  },
  {
    "chem-smiles": "COc1cc(C(=O)N2CCC(N3CCN(C)CC3)CC2)ccc1Nc1ncc2c(n1)N(C)c1ccccc1C(=O)N2C",
    "kinase still bound, per cent of control (%)": 100
  }
]

Each recorded value in this set is attributed to the kinase profiling compilation of Christmann-Franck et al. (2016).
